Sourced from patent US9617256B2

System: ASAU001 (laboratory strain of S. aureus, ATCC29213)
Assay: MIC broth microdilution, ASAU001
Type: cell-based
Conditions: Staphylococcus aureus, ATCC29213, read-out: MIC ASAU001
property_label: MIC

[[record]]
compound = "C[C@@H](O)[C@H](NC(=O)c1ccc(C#CC#Cc2cncn2C)cc1)C(=O)NO"
property_label = "MIC"
result = "16 to 64 mg/L"

[[record]]
compound = "CO[C@H](C)[C@H](NC(=O)c1ccc(C#C/C=C/c2ccc(CN3CCOCC3)cc2)cc1)C(=O)NO"
property_label = "MIC"
result = "16 to 64 mg/L"

[[record]]
compound = "CC(C)(N)[C@H](NC(=O)c1ccc(C#CC#CC2CCCC2)cc1)C(=O)NO"
property_label = "MIC"
result = "2 to 16 mg/L"

[[record]]
compound = "CC(C)/C=C/C#Cc1ccc(C(=O)N[C@H](C(=O)NO)C(C)(C)N)cc1"
property_label = "MIC"
result = "16 to 64 mg/L"

[[record]]
compound = "C[C@@H](O)[C@H](NC(=O)c1ccc(C#C/C=C/C2CC2)cc1)C(=O)NO"
property_label = "MIC"
result = "16 to 64 mg/L"

[[record]]
compound = "C[C@@H](N)[C@H](NC(=O)c1ccc(C#CC#Cc2ccccc2)cc1)C(=O)NO"
property_label = "MIC"
result = "2 to 16 mg/L"

[[record]]
compound = "O=C(N[C@H](C(=O)NO)C1CC1)c1ccc(C#Cc2ccc(CN3CCOCC3)cc2)cc1"
property_label = "MIC"
result = "> 64 mg/L"

[[record]]
compound = "CCOCc1ccc(C#CC#Cc2ccc(C(=O)N[C@H](C(=O)NO)[C@@H](C)O)cc2)cc1"
property_label = "MIC"
result = "16 to 64 mg/L"

[[record]]
compound = "C[C@@H](N)[C@H](NC(=O)c1ccc(C#Cc2ccc(CNC3CCC3)cc2)cc1)C(=O)NO"
property_label = "MIC"
result = "> 64 mg/L"

[[record]]
compound = "C[C@@H](NCC(=O)NC[C@H](NC(=O)c1ccc(C#Cc2ccccc2)cc1)C(=O)NO)c1ccccc1"
property_label = "MIC"
result = "16 to 64 mg/L"

[[record]]
compound = "O=C(N[C@H](C(=O)NO)C1CCS(=O)(=O)CC1)c1ccc(/C=C/C#Cc2ccc(CN3CCOCC3)cc2)cc1"
property_label = "MIC"
result = "> 64 mg/L"

[[record]]
compound = "C[C@@H](N)[C@H](NC(=O)c1ccc(/C=C/C#Cc2ccccc2F)cc1)C(=O)NO"
property_label = "MIC"
result = "16 to 64 mg/L"

[[record]]
compound = "C[C@@H](N)[C@H](NC(=O)c1ccc(/C=C/C#Cc2ccc(CO)cc2)cc1)C(=O)NO"
property_label = "MIC"
result = "> 64 mg/L"

[[record]]
compound = "CC(C)(N)[C@H](NC(=O)c1ccc(C#Cc2ccc(CNC3CC3)cc2)cc1)C(=O)NO"
property_label = "MIC"
result = "16 to 64 mg/L"

[[record]]
compound = "NC[C@H](NC(=O)c1ccc(/C=C/C#Cc2ccc(CO)cc2)cc1)C(=O)NO"
property_label = "MIC"
result = "> 64 mg/L"

[[record]]
compound = "CCNCc1ccc(C#Cc2ccc(C(=O)N[C@H](C(=O)NO)[C@@H](C)N)cc2)cc1"
property_label = "MIC"
result = "16 to 64 mg/L"

[[record]]
compound = "O=C(CNC1CC1)NC[C@H](NC(=O)c1ccc(C#C/C=C/c2ccccc2)cc1)C(=O)NO"
property_label = "MIC"
result = "16 to 64 mg/L"

[[record]]
compound = "Cn1cnc(C#CC#Cc2ccc(C(=O)N[C@H](C(=O)NO)C(C)(C)N)cc2)c1"
property_label = "MIC"
result = "16 to 64 mg/L"

[[record]]
compound = "C[C@@H](NCC(=O)N[C@H](C)[C@H](NC(=O)c1ccc(C#C/C=C/c2ccccc2)cc1)C(=O)NO)c1ccccc1"
property_label = "MIC"
result = "16 to 64 mg/L"

[[record]]
compound = "CCOCc1ccc(C#CC#Cc2ccc(C(=O)N[C@H](C(=O)NO)C(C)(C)O)cc2)cc1"
property_label = "MIC"
result = "16 to 64 mg/L"

[[record]]
compound = "C[C@@H](N)[C@H](NC(=O)c1ccc(C#Cc2ccc(CNC3CC3)cc2)cc1)C(=O)NO"
property_label = "MIC"
result = "> 64 mg/L"

[[record]]
compound = "C[C@@H](N)[C@H](NC(=O)c1ccc(C#CC#Cc2ccccn2)cc1)C(=O)NO"
property_label = "MIC"
result = "> 64 mg/L"

[[record]]
compound = "C[C@@H](N)[C@H](NC(=O)c1ccc(C#CC#Cc2ccc(F)cc2)cc1)C(=O)NO"
property_label = "MIC"
result = "16 to 64 mg/L"

[[record]]
compound = "CC(C)(O)[C@H](NC(=O)c1ccc(C#C/C=C/c2ccncc2)cc1)C(=O)NO"
property_label = "MIC"
result = "16 to 64 mg/L"

[[record]]
compound = "C[C@@H](N)[C@H](NC(=O)c1ccc(C#Cc2ccc(CN3CCC(F)(F)CC3)cc2)cc1)C(=O)NO"
property_label = "MIC"
result = "> 64 mg/L"

[[record]]
compound = "CCC#CC#Cc1ccc(C(=O)N[C@H](C(=O)NO)C(C)(C)N)cc1"
property_label = "MIC"
result = "2 to 16 mg/L"

[[record]]
compound = "C[C@@H](N)[C@H](NC(=O)c1ccc(C#CC(O)c2ccc(CO)cc2)cc1)C(=O)NO (stereo partly shown)"
property_label = "MIC"
result = "16 to 64 mg/L"

[[record]]
compound = "CC(C)/C=C/C#Cc1ccc(C(=O)N[C@H](C(=O)NO)[C@@H](C)N)cc1"
property_label = "MIC"
result = "2 to 16 mg/L"

[[record]]
compound = "C[C@@H](O)[C@H](NC(=O)c1ccc(/C=C/C#Cc2cccnc2)cc1)C(=O)NO"
property_label = "MIC"
result = "16 to 64 mg/L"

[[record]]
compound = "C[C@@H](N)[C@H](NC(=O)c1ccc(C#CC#CCC2CCCC2)cc1)C(=O)NO"
property_label = "MIC"
result = "16 to 64 mg/L"

[[record]]
compound = "CC(C)(O)[C@H](NC(=O)c1ccc(/C=C/C#Cc2ccc(CNC3CC3)cc2)cc1)C(=O)NO"
property_label = "MIC"
result = "16 to 64 mg/L"


###

Test system: ASAU001 (laboratory strain of S. aureus, ATCC29213)
Assay: MIC broth microdilution, ASAU001
Assay type: cell-based
Settings: Staphylococcus aureus, ATCC29213, read-out: MIC ASAU001
property_label: MIC

[[record]]
compound = "CC(C)C#C/C=C/c1ccc(C(=O)N[C@H](C(=O)NO)C(C)(C)N)cc1"
property_label = "MIC"
result = "2 to 16 µg/mL"

[[record]]
compound = "O=CN(O)CCNC(=O)c1ccc(C#Cc2ccc(CN3CCOCC3)cc2)cc1"
property_label = "MIC"
result = "> 64 µg/mL"

[[record]]
compound = "C[C@@H](N)[C@H](NC(=O)c1ccc(/C=C/C#CC2CCCCC2)cc1)C(=O)NO"
property_label = "MIC"
result = "2 to 16 µg/mL"

[[record]]
compound = "C[C@@H](N)[C@H](NC(=O)c1ccc(C#CC(O)c2ccccc2)cc1)C(=O)NO (stereo partly shown)"
property_label = "MIC"
result = "16 to 64 µg/mL"

[[record]]
compound = "NC[C@H](NC(=O)c1ccc(C#C/C=C/c2ccc(CNC3CC3)cc2)cc1)C(=O)NO"
property_label = "MIC"
result = "16 to 64 µg/mL"

[[record]]
compound = "CC(C)(N)[C@H](NC(=O)c1ccc(C#CC#Cc2cccc(F)c2)cc1)C(=O)NO"
property_label = "MIC"
result = "16 to 64 µg/mL"

[[record]]
compound = "C[C@@H](N)[C@H](NC(=O)c1ccc(C#CC#Cc2ccc(OC3CC3)cc2)cc1)C(=O)NO"
property_label = "MIC"
result = "16 to 64 µg/mL"

[[record]]
compound = "C[C@@H](N)[C@H](NC(=O)c1ccc(C#Cc2ccc(CNCc3nccn3C)cc2)cc1)C(=O)NO"
property_label = "MIC"
result = "> 64 µg/mL"

[[record]]
compound = "CC(C)(N)C(NC(=O)c1ccc(C#Cc2ccc(CNC3CC3)cc2)cc1)C(=O)NO (stereo not shown)"
property_label = "MIC"
result = "16 to 64 µg/mL"

[[record]]
compound = "C[C@@H](NC(=O)CNC1CC1)[C@H](NC(=O)c1ccc(C#Cc2ccccc2)cc1)C(=O)NO"
property_label = "MIC"
result = "16 to 64 µg/mL"

[[record]]
compound = "CC(C)CCC#CC#Cc1ccc(C(=O)N[C@H](C(=O)NO)C(C)(C)O)cc1"
property_label = "MIC"
result = "16 to 64 µg/mL"

[[record]]
compound = "C[C@@H](O)[C@H](NC(=O)c1ccc(C#C/C=C/c2ccc(CNC3CC3)cc2)cc1)C(=O)NO"
property_label = "MIC"
result = "16 to 64 µg/mL"

[[record]]
compound = "CC(C)(O)[C@H](NC(=O)c1ccc(C#CC#Cc2ccc(CNC3CC3)cc2)cc1)C(=O)NO"
property_label = "MIC"
result = "16 to 64 µg/mL"

[[record]]
compound = "C[C@@H](N)[C@H](NC(=O)c1ccc(C#Cc2ccc(CN3CCC(F)(F)C3)cc2)cc1)C(=O)NO"
property_label = "MIC"
result = "16 to 64 µg/mL"

[[record]]
compound = "C[C@@H](O)[C@H](NC(=O)c1ccc(C#C/C=C/c2ccccc2)cc1)C(=O)NO"
property_label = "MIC"
result = "16 to 64 µg/mL"

[[record]]
compound = "NC[C@H](NC(=O)c1ccc(C#C/C=C/c2ccc(CO)cc2)cc1)C(=O)NO"
property_label = "MIC"
result = "16 to 64 µg/mL"

